Origin of measurements: the Biogen ADME set (Fang et al. 2023)

Recorded metric: intrinsic clearance, human liver microsomes (mL/min/kg)

Some molecules with recorded intrinsic clearance, human liver microsomes:
1) O=C(c1ccc(Cn2nnc(-c3cccc(F)c3)n2)cc1)N1CCCC1 :: 12.1
2) Cn1cc(NC(=O)c2cnn3cccnc23)c(C2CCCCC2)n1 :: 37.7

I: CC(C)c1nsc(N2CCC(Nc3cccnc3)CC2)n1
II: COCCc1nsc(Oc2ccc(C)cc2Br)n1
III: Cc1noc(C2CCN(CCc3ccccc3)CC2)n1
Ask: Order field: intrinsic clearance, human liver microsomes | Direction: descending (largest first) Provide the labels, sequenced as the question asks.
Result: II, I, III

----------
Conditions: pH 6.8
Recorded metric: aqueous solubility (µg/mL)

Some compounds with recorded aqueous solubility:
1. COc1cc(Nc2ncc3c(n2)-c2ccc(Cl)cc2C(c2c(F)cccc2OC)=NC3)ccc1C(=O)O :: 73.1
2. O=C(CCn1nnc2ccccc2c1=O)Nc1ccncc1 :: 21.4
3. Cc1oc(C)c(C(=O)NCC#Cc2ccccc2)c1C :: 48

1: CCOc1ccc(CC(=O)NCCn2cccnc2=O)cc1
2: O=C(NC1CCCCCC1)c1ccc(-c2cnco2)cc1
Ask: From the recorded data, which exceeds the other in aqueous solubility: 1 or 2 ? API: response body contains the label of the selected item.
Result: 1

P: Cc1ccc(CCNC(=O)c2ccncc2)o1
Q: O=C(c1ccc2[nH]ccc2c1)N1CCCC(c2cccc(-c3ccc(F)cc3)n2)C1 (centres undefined)
R: CN1CC(=O)N(CCCC(=O)Nc2cccc(C#Cc3cccs3)c2)C1=O
Ask: Order field: aqueous solubility | Direction: descending (largest first) Provide the labels, sequenced as the question asks.
Result: R, P, Q
